method_description: Primary qHTS for inhibitors of MERS-S pseudo-typed particle cell entry (AID 1479149); further: nearly all actives have a fitted effect of over 60% in size
condition_label: MERS-S pseudotyped particle entry, luciferase; series mostly up to 57.1 µM
Results filed as inconclusive are left out. The source made the active and inactive calls. The call rests on the fitted dose curve.
// one of label 1 = active, label 0 = inactive, no free text

Exercise: So what was the verdict on OCCOc1ccccc1 in this test?
Key: label 0

Exercise: So what was the verdict on COC(=O)[C@@H]1CC2=CC(=O)CC[C@]2(C)[C@@]23O[C@@H]2C[C@@]2(C)[C@@H](CC[C@@]24CCC(=O)O4)[C@H]13 in this test?
Key: label 0

Exercise: So what was the verdict on CCCCNC(=O)NS(=O)(=O)c1ccc(C)cc1 in this test?
Key: label 0

Exercise: So what was the verdict on CCCCN1C[C@H](O)[C@@H](O)[C@H](O)[C@H]1CO in this test?
Key: label 0

Exercise: So what was the verdict on CCC1C(=O)OCC1Cc1cncn1C (configuration not stated) in this test?
Key: label 0

Exercise: So what was the verdict on CNCCc1ccccn1 in this test?
Key: label 0

Exercise: So what was the verdict on Clc1ccc(COC(Cn2ccnc2)c2ccc(Cl)cc2Cl)cc1 (configuration not stated) in this test?
Key: label 1

Exercise: So what was the verdict on C[n+]1ccccc1/C=N/O in this test?
Key: label 0

Exercise: So what was the verdict on O=C1NC(c2ccccc2)(c2ccccc2)C(=O)N1COP(=O)(O)O in this test?
Key: label 0

Exercise: So what was the verdict on C[C@H]1O[C@H](O[C@H]2[C@H](O)[C@@H](O)[C@@H](O[C@H]3[C@H](O)[C@@H](O)[C@H](O)O[C@@H]3CO)O[C@@H]2CO)[C@H](O)[C@@H](O)[C@@H]1N[C@H]1C=C(CO)[C@@H](O)[C@H](O)[C@H]1O in this test?
Key: label 0

Exercise: So what was the verdict on O=c1n(CCCN2CCN(c3cccc(Cl)c3)CC2)nc2ccccn12 in this test?
Key: label 0

Exercise: So what was the verdict on CN(C)c1ccc(O)c2c1C[C@H]1C[C@H]3[C@H](N(C)C)C(=O)C(C(N)=O)=C(O)[C@@]3(O)C(=O)C1=C2O in this test?
Key: label 0

Exercise: So what was the verdict on Nc1nc2c(ncn2COC(CO)CO)c(=O)[nH]1 in this test?
Key: label 0

Exercise: So what was the verdict on COc1cc(NC(C)CCCN)c2ncccc2c1 (configuration not stated) in this test?
Key: label 0

Exercise: So what was the verdict on NC(=O)C(c1ccccc1)(c1ccccc1)[C@@H]1CCN(CCc2ccc3c(c2)CCO3)C1 in this test?
Key: label 0

Exercise: So what was the verdict on CN1CCN(C2=Nc3cc(Cl)ccc3Nc3ccccc32)CC1 in this test?
Key: label 0

Exercise: So what was the verdict on N[C@@H](Cc1ccc(N(CCCl)CCCl)cc1)C(=O)O in this test?
Key: label 0

Exercise: So what was the verdict on CCOC(=O)[C@H](CCc1ccccc1)N[C@@H](C)C(=O)N1Cc2cc(OC)c(OC)cc2C[C@H]1C(=O)O in this test?
Key: label 0

Exercise: So what was the verdict on CNC1(C)C2CCC(C2)C1(C)C (configuration not stated) in this test?
Key: label 0

Exercise: So what was the verdict on O=C(OC1C[C@H]2CC[C@@H](C1)[N+]21CCCC1)C(O)(c1ccccc1)c1ccccc1 (some centres not stated) in this test?
Key: label 0

Exercise: So what was the verdict on C=C1C[C@@H]2[C@H](CC[C@]3(C)C(=O)CC[C@@H]23)[C@@]2(C)C=CC(=O)C=C12 in this test?
Key: label 0

Exercise: So what was the verdict on CN1CCN(C(=O)O[C@H]2c3nccnc3C(=O)N2c2ccc(Cl)cn2)CC1 in this test?
Key: label 0

Exercise: So what was the verdict on CCN(C)C(=O)Oc1cccc([C@H](C)N(C)C)c1 in this test?
Key: label 0

Exercise: So what was the verdict on Oc1cn2c(n1)Nc1ccc(Cl)c(Cl)c1C2 in this test?
Key: label 0

Exercise: So what was the verdict on C=C1CC[C@@]2(O)[C@H]3Cc4ccc(O)c5c4[C@@]2(CCN3CC2CC2)[C@H]1O5 in this test?
Key: label 0

Exercise: So what was the verdict on CCC1(c2ccccc2)C(=O)NCNC1=O in this test?
Key: label 0

Exercise: So what was the verdict on Cc1cn([C@H]2C=C[C@@H](CO)O2)c(=O)[nH]c1=O in this test?
Key: label 0

Exercise: So what was the verdict on CCOc1ccccc1OCCN[C@H](C)Cc1ccc(OC)c(S(N)(=O)=O)c1 in this test?
Key: label 0

Exercise: So what was the verdict on Nc1nc(N)c2nc(-c3ccccc3)c(N)nc2n1 in this test?
Key: label 0

Exercise: So what was the verdict on Nc1nc2c(ncn2COCCO)c(=O)[nH]1 in this test?
Key: label 0

Exercise: So what was the verdict on Cc1ccccc1C(=O)Nc1ccc(C(=O)N2CCCC(O)c3cc(Cl)ccc32)c(C)c1 (configuration not stated) in this test?
Key: label 0

Exercise: So what was the verdict on CN1C(CCl)Nc2cc(Cl)c(S(N)(=O)=O)cc2S1(=O)=O (configuration not stated) in this test?
Key: label 0

Exercise: So what was the verdict on Cn1cc(C2=C(c3cn(C4CCN(Cc5ccccn5)CC4)c4ccccc34)C(=O)NC2=O)c2ccccc21 in this test?
Key: label 0

Exercise: So what was the verdict on NCC(O)c1ccc(O)cc1 (configuration not stated) in this test?
Key: label 0

Exercise: So what was the verdict on N=c1nc(N2CCCCC2)cc(N)n1O in this test?
Key: label 0

Exercise: So what was the verdict on COC(=O)C1=C(C)NC(C)=C(C(=O)OC(C)C)C1c1cccc2nonc12 (configuration not stated) in this test?
Key: label 0

Exercise: So what was the verdict on COc1ccc([C@@H]2Sc3ccccc3N(CCN(C)C)C(=O)[C@@H]2OC(C)=O)cc1 in this test?
Key: label 0

Exercise: So what was the verdict on CN(C)CCc1c[nH]c2ccc(C[C@H]3COC(=O)N3)cc12 in this test?
Key: label 0

Exercise: So what was the verdict on CC1(C)O[C@@H]2[C@@H](CO[C@@]3(COS(N)(=O)=O)OC(C)(C)O[C@@H]23)O1 in this test?
Key: label 0

Exercise: So what was the verdict on C[C@](N)(Cc1ccc(O)c(O)c1)C(=O)O in this test?
Key: label 0

Exercise: So what was the verdict on CO[C@H]1C=CO[C@@]2(C)Oc3c(C)c(O)c4c(O)c(c(/C=N/N5CCN(C)CC5)c(O)c4c3C2=O)NC(=O)/C(C)=C\C=C[C@H](C)[C@H](O)[C@@H](C)[C@@H](O)[C@@H](C)[C@H](OC(C)=O)[C@@H]1C in this test?
Key: label 0

Exercise: So what was the verdict on CN(N=O)C(=O)N[C@@H]1[C@@H](O)[C@H](O)[C@@H](CO)O[C@@H]1O in this test?
Key: label 0
